Catalogue of amyloid nucleation score values
assay: amyloid nucleation score (Sup35N fusion, yeast selection) (log enrichment); library NNK1; higher = more nucleation; inactive = no reads after selection;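 also: zero at mode of non-aggregating sequences after 7 days selection at 30°C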
metric: amyloid nucleation score

- substance: "YIRGYTIFSNWCFGLASGSA"
  recorded.number: -0.525
- substance: "DMKNDYLHVGFWVLIGWHYL"
  recorded.number: 0.743
- substance: "LRCYEDLFVGLAHGRMRYTG"
  recorded.number: -0.561
- substance: "TLIRGIIISRWRRVRNIDE"
  recorded.number: -0.216
- substance: "QHIPGDCFYHCCQFHCAQKE"
  recorded.number: 0.818
- substance: "KSQDKRYLSIPGCVLSFWGE"
  recorded.number: 0.069
- substance: "SRYYFHFELFVWR"
  recorded.number: 0.291
- substance: "QVNDIGP"
  recorded.number: -0.341
- substance: "MRDLALLAEVLVTD"
  recorded.number: 0.295
- substance: "QVVRIYQVQGLWIMVHR"
  recorded.number: 1.96
- substance: "TTNMRLFLLYNTTLVMSFNV"
  recorded.number: 1.88
- substance: "SRILRLLHTVHCDGVGERLR"
  recorded.number: -0.104
- substance: "GDISYVSASLQLFNWVLSCV"
  recorded.number: 3.97
- substance: "KMLFGH"
  recorded.number: -0.085
- substance: "GSKTRAKLSLGCPKFLDAKG"
  recorded.number: 0.457
- substance: "DKWRVRCCRFWLT"
  recorded.number: 0.191

----------
assay: amyloid nucleation score (Sup35N fusion, yeast selection) (log enrichment); library NNK1; higher = more nucleation; inactive = no reads after selection
// 0 strictly below 0.1 in amyloid nucleation score; 1 otherwise

- substance: "NQWCAFWYRESSRVYDCDWL"
  class.assignment: 0
- substance: "TAGATI"
  class.assignment: 1
- substance: "FLSCFDILLHGVSYNSFQYW"
  class.assignment: 1
- substance: "ITYSLSIYSSRAICLYVWGG"
  class.assignment: 0
- substance: "VGSSNTTNKYPGFCCWRFDG"
  class.assignment: 1
- substance: "GLCGVILCELISNVREGKSK"
  class.assignment: 1
- substance: "YGRGESMLHAGGNWEWTGQE"
  class.assignment: 0
- substance: "SCFVSSSAIPWVIHSKFDLG"
  class.assignment: 1
- substance: "SYLDLRLAVCHCNGA"
  class.assignment: 1
- substance: "VYFGDLLLKTSYL"
  class.assignment: 0
- substance: "NQMVWMVELWRTVDCVVLNV"
  class.assignment: 0
- substance: "FCVGYRCWMYN"
  class.assignment: 0
- substance: "VACLKRW"
  class.assignment: 0
- substance: "LWFLNRRLVKQSYG"
  class.assignment: 1
- substance: "ATRDYVSGANDGIGPQMMWV"
  class.assignment: 1

----------
assay: amyloid nucleation score (Sup35N fusion, yeast selection) (log enrichment); library NNK3; higher = more nucleation; inactive = no reads after selection
metric: amyloid nucleation score

- substance: "SRKCWAHKSIDVEVATSSAK"
  result: "inactive"
- substance: "IRFVLYISGILSCWFNRWNN"
  result: "inactive"
- substance: "NLLKSTYSVIASCASLLDLV"
  result: "inactive"
- substance: "LKEQSVQMAWP"
  result: "inactive"
- substance: "SGVRANFDFLASVAAHPLNS"
  result: "inactive"
- substance: "KSRSYPCIEPNV"
  result: "inactive"
- substance: "SNHITRFQLESQTIPIISFV"
  result: "inactive"
- substance: "GFCICEYDRCTIFSYNHYGA"
  result: 2.94
- substance: "INFYVSFYIIVTCYVVAHCV"
  result: 1.32
- substance: "DIYFCYNIDFLYRVTLRQLR"
  result: "inactive"
- substance: "CVIITFESRILDELICDTVR"
  result: "inactive"
- substance: "ASRSDCTRYIMTTMIWWHFP"
  result: "inactive"
- substance: "SSWADYSKPYSGFCQGYRVY"
  result: "inactive"
- substance: "ICSFFGNSPVRLQVYFLWSW"
  result: "inactive"
- substance: "VLFMMMERHSRSRSRGSLQ"
  result: 0.858
- substance: "RCTVDVFMHCSKLSNAELSL"
  result: 0.833
- substance: "AVTYENRSNLIVKVLVI"
  result: -0.363
- substance: "WFLSLLSQLGYGQVFVDFIP"
  result: "inactive"
- substance: "RLCSKRVKSTDGGSEHRMSW"
  result: "inactive"
- substance: "YFSLWVLSYFLEAPLSLRNN"
  result: "inactive"
- substance: "TNKRTYFWVF"
  result: 1.02
- substance: "VYIWRIMTTEIWVRVTWYAG"
  result: "inactive"
- substance: "CILKHSGR"
  result: "inactive"
- substance: "IDARRFQGFNISSYMN"
  result: 0.372
- substance: "PVKRVIYSRGYVQKCPLCP"
  result: "inactive"
- substance: "YHTARFGIKFLLRM"
  result: "inactive"
- substance: "LGVRNDPQQSLPVQFGFELE"
  result: 0.041
- substance: "LSLAVKVIVKG"
  result: "inactive"
- substance: "IIYRKVVKRCAWITDKEIPG"
  result: "inactive"
- substance: "VRLWFSGRTFSVKVVTHAPC"
  result: 1.41
- substance: "HWFTLSKYGR"
  result: "inactive"
- substance: "KALTRRIILHWK"
  result: 0.711
- substance: "IFTDLVA"
  result: "inactive"
- substance: "FSVIMFMNLRAQFASMDRGG"
  result: 1.59
- substance: "FYKAFIL"
  result: "inactive"
- substance: "SKCVYAVWCACVFARF"
  result: "inactive"
- substance: "YLNSYQDIYVRCVLELLYSS"
  result: "inactive"
- substance: "PHRGACMARTLSEVFCRAGS"
  result: "inactive"
- substance: "VTFSSISHIRRYVSNHMCLG"
  result: "inactive"
- substance: "NRCQKSVVYLSLVYYHGIGM"
  result: "inactive"
- substance: "KASWRMLC"
  result: "inactive"
- substance: "QWKKWLDTACKWVGVGGTIR"
  result: "inactive"
- substance: "MHHVLYERERSY"
  result: "inactive"
- substance: "SFNLTNSKYWVR"
  result: "inactive"
- substance: "KYVRVLHCIDLFRSSLSHIG"
  result: "inactive"
- substance: "SDWFGCVVVTLCLVNHQALS"
  result: "inactive"
- substance: "MSIDPHILVLVGEWLVCLKL"
  result: "inactive"
- substance: "FPVYQCWLSN"
  result: "inactive"
- substance: "VSLRQVS"
  result: "inactive"
- substance: "VYTRLVYIYQGVFCRIFSAC"
  result: 1.86
- substance: "YVSIWNHDADRGRC"
  result: "inactive"
- substance: "AVFTCCCPRK"
  result: "inactive"
- substance: "DCILGGSMMGRNTSMSAHDN"
  result: "inactive"
- substance: "WPLTCCDFSPSDSAIGRM"
  result: "inactive"
- substance: "RVSLLNKGVGLRNIRFHEFL"
  result: "inactive"
- substance: "YWMLNAHRNW"
  result: "inactive"
- substance: "SNVVSSI"
  result: "inactive"
- substance: "IFQRKRRTYLS"
  result: "inactive"
- substance: "IMDDTSQSNRCYYEKVLCRG"
  result: 1.34
- substance: "PVFVCCRWHVVFGKNNGSAT"
  result: 1.47
- substance: "EKLCAHCSCPKVGVELFGCV"
  result: "inactive"
- substance: "LCKIRECHCNLYHRVYMGWN"
  result: "inactive"
- substance: "YSYICIILYWWCSRSAILPF"
  result: "inactive"
- substance: "LHQSSTGLSC"
  result: "inactive"
- substance: "YCVSGMVMCCH"
  result: "inactive"
- substance: "GGDSPNDARRFFNFHIYNIW"
  result: 2.05
- substance: "RYDWLLGSVWVFLLA"
  result: "inactive"
- substance: "LAVFSNRRCFFLENQYHRRS"
  result: "inactive"
- substance: "SSVRRYHKLIKRRDYVAFNV"
  result: "inactive"
- substance: "DVSRVIA"
  result: "inactive"
- substance: "FSISKLGCCYVTAMVVSASR"
  result: "inactive"
- substance: "IANCRIS"
  result: 1.34
- substance: "MITDSGIYFAFCWDKSTVSS"
  result: "inactive"

----------
experiment: amyloid nucleation score (Sup35N fusion, yeast selection) (log enrichment); library NNK1; higher = more nucleation; inactive = no reads after selection
Catalogue of amyloid nucleation score values

- substance: "LHLNSCSQNITSLHYLPFWA"
  amyloid nucleation score: -0.113
- substance: "LPGYVGQ"
  amyloid nucleation score: 0.472
- substance: "DTPWWGSGALVFKLCACSAY"
  amyloid nucleation score: -0.341
- substance: "CVLPFGLSSG"
  amyloid nucleation score: 0.483
- substance: "GCAQRKVAPWNRGLRQ"
  amyloid nucleation score: -0.501
- substance: "VAYRVFCD"
  amyloid nucleation score: 0.51
- substance: "ICYNKSSP"
  amyloid nucleation score: -0.097
- substance: "SAFVDWSAGSSNDFFFF"
  amyloid nucleation score: -0.577
- substance: "QLIHMMFYIRFMWDLGHRSL"
  amyloid nucleation score: 0.814
